- Target Under Test: T1, full-length beta-Catenin (Uniprot ID P35222) (Homo sapiens (Human), UniProt P35222 1-781)
- T1 construct: The assay text says 'full-length beta-Catenin (Uniprot ID P35222)'; also called bCat; B-Catenin
- T1 sequence: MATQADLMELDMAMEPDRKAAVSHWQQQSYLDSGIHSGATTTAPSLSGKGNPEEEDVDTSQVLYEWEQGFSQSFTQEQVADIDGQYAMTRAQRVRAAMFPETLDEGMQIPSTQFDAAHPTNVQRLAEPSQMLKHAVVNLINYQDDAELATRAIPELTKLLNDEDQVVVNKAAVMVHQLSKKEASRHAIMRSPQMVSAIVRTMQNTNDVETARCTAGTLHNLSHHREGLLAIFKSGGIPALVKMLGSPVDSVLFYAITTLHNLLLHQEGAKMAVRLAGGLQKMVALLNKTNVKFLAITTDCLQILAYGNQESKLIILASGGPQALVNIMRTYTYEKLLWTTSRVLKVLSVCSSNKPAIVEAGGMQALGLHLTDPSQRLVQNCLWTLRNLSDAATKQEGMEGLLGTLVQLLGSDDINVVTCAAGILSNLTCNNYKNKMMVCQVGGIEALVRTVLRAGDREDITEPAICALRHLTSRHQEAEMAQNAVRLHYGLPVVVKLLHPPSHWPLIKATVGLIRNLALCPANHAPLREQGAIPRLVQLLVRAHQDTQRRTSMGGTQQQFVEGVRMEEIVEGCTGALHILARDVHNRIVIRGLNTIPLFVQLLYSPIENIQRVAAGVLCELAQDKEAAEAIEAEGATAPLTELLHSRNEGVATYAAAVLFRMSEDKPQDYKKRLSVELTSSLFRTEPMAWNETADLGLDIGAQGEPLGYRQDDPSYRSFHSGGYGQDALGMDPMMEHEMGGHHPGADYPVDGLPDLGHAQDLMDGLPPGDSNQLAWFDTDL
- Test Protocol: fluorescence polarization competition; full-length beta-catenin, competitor 5FAM-TCF4(10-53) probe
Starred links: 1 amine or outer side, 2 acyl side, 3 side chain; linkers in the order of their positions; H or OH if unused. Positions of bridges follow the written chain, without caps; N, C: chain ends. Non-standard residues stand in square brackets, D forms with d. *: point of attachment. B5 = 2-amino-2-(pent-4-en-1-yl)hept-6-enoic acid, C=CCCCC(CCCC=C)(N[*:1])C(=O)[*:2]; Bta = N[C@@H](Cc1csc2ccccc12)C(=O)O; αAllylPro = C=CC[C@@]1(C(=O)O)CCCN1; Azidoacetyl = [N-]=[N+]=NCC(=O)*; S8 = C=CCCCCCC[C@](C)(N)C(=O)O; PhAc = O=C(Cc1ccccc1)*
Metric: pEC50
When answering, recall that pEC50 equals minus log10 of the concentration in mol/L, and write that number alone.

stdin: Any idea what pEC50 was measured for XDIXDEAAFQXFXQ (2PyPrpc-PL3-Asp-Ile-B5-Asp-Glu-Ala-Ala-Phe-Gln-S8-Phe-BztA-Gln-NH2; stapled PL3(1)-B5(4) and B5(4)-S8(11) by olefin metathesis, Stapled peptide composition; N-terminal cap 2PyPrpc) [I-602] ?
stdout: 5.50

stdin: Any idea what pEC50 was measured for PhAc-[αAllylPro]DI[B5]DEAAFQ[S8]F[Bta]Q-NH2 (staple 1-4, 4-11, Stapled peptide composition; N-terminal cap Bnc) [I-600] ?
stdout: 6.10

stdin: Any idea what pEC50 was measured for Ac-[αAllylPro]DI[B5]DEK(Azidoacetyl)AFQ[S8]F[Bta]Q-NH2 (staple 1-4, 4-11; not fully specified, Stapled peptide composition) [I-592] ?
stdout: 7.62

stdin: Any idea what pEC50 was measured for Ac-[αAllylPro]DI[B5]DDAAFQ[S8]F[Bta]H-NH2 (staple 1-4, 4-11; not fully specified, Stapled peptide composition) [I-580] ?
stdout: 6.94
